From: patent US20210214461A1

Experimental Target: pre-existing anti-scFv903 antibodies in human serum H50 (human)
Assay Explanation: competition ADA bridging ELISA
Measurement Label: signal change in competition ELISA (% reduction in OD) (%)
Write the value in % as a bare number.

Look at this binder and give its reported signal change in competition ELISA (% reduction in OD). scFv105 (scFv) scFv: DIVMTQSPSSLSASVGDRVTLTCTASQSVSNDVVWYQQRPGKAPKLLIYSAFNRYTGVPSRFSGRGYGTDFTLTISSLQPEDVAVYYCQQDYNSPRTFGQGTKLEVKRGGGGSGGGGSGGGGSSGGGSQVQLVQSGAEVKKPGASVKVSCTASGYTFTHYGMNWVRQAPGKGLEWMGWINTYTGEPTYADKFKDRFTFSLETSASTVYMELTSLTSDDTAVYYCARERGDAMDYWGQGTLVTVSS
-31
